Attribution: patent EP0955032A1

assay: in vitro; type: cell-based; conditions: rabbit, sirc-c cells
CC50 at 48 h for assorted molecules
property.measured: CC50 at 48 h

[
  {
    "molecule": "CC(=O)Oc1ccc(OC(C)=O)c(C(=O)O)c1",
    "property.measured": "CC50 at 48 h",
    "value.reported": "1000 to 2000 mg/L"
  },
  {
    "molecule": "CCCCCCCCCCCCOS(=O)(=O)[O-].[Na+] [SDS, sodium dodecyl sulfate, reference compound]",
    "property.measured": "CC50 at 48 h",
    "value.reported": "~60 mg/L"
  }
]
